- Study System: T1, TRBP-ΔC (UniProt Q15633-2 9-215)
- T1 sequence: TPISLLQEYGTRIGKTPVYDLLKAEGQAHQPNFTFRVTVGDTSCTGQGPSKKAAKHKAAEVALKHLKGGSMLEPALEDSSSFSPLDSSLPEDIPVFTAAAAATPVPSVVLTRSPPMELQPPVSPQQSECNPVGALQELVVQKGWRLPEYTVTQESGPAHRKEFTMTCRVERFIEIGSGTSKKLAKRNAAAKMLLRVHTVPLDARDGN
- Measurement Protocol: EMSA; apparent Kd; nH 1.1; 50 mM sodium cacodylate pH 7.0, 50 mM potassium glutamate, 5% glycerol; EMSA 0.5 pM RNA, 30 min at room temperature, gel 0.25X TBE at 10 C; CD at 10 C with 5-15 uM RNA
- Test Settings: protein: recombinant; label: 5'-32P; hairpin, 16 bp stem, UUCG loop
Measured Attribute: Kd (nM)
Provide the reading as a plain figure in nM.

[Q] Recorded Kd for GUCAGCAGUGCCUUAGUUCGCUAAGGCACUGCUGAC (structured_RNA) [ds16-tetra-stable] , please?
[A] 500
